B1: Serine/threonine-protein kinase A-Raf, residues 21 to 89; numbered along this chain, P10398 (parent)
chain: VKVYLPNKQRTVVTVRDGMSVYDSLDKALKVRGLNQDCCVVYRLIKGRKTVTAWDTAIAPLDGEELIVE

Variants of: B1
Assay: abundance fitness (aPCA) (normalised: wild type 0, dead -1); higher = more abundant; growth selection in yeast, the domain comes from the species named
Settings: Homo sapiens
Measurement type: abundance fitness
Reply with the value as a number alone.

Exercise: Specify measured abundance fitness for `V40P` .
Key: -0.925
